assay: killing of E-cadherin-knockdown HMLE cells – cell-based, CellTiter-Glo luminescence, primary HTS retest, dry powder, set 5, dose response (AID 504535); conditions: HMLE_shECad viability, CellTiter-Glo luminescence, 72 h; at 19.5 µM (top of the series)
Results filed as inconclusive are left out.
molecules and their reported activity change, negative = inhibition
Return type: number; implicit unit %.

>>> quantitative_readout("Cc1csc(NCc2ccc(COc3ccccc3)o2)n1")
-11.4

Entry `CNC(=O)c1csc(NC(=O)c2ccc(COc3ccccc3)o2)n1` has what activity change, negative = inhibition?
-8.68

Entry `COCc1ccc(C(=O)Nc2nc(C)cs2)o1` has what activity change, negative = inhibition?
1.05

###

system: HMLE_shECad viability, CellTiter-Glo luminescence, 72 h; experiment: killing of E-cadherin-knockdown HMLE cells – cell-based, CellTiter-Glo luminescence, primary HTS retest, dry powder, set 5, dose response (AID 504535)
Results filed as inconclusive are left out.
readout: AC50

Here are 8 compounds together with their reported answers.
>>> result("COc1cccc(OCc2ccc(C(=O)Nc3nc(C)cs3)o2)c1")
"0.348 µM"
>>> result("Cc1cc(C)c(OCC(=O)N/N=C/c2ccc[nH]2)c(C)c1")
"9.43 µM"
>>> result("O=C(Nc1nc(C(F)(F)F)cs1)c1ccc(COc2ccccc2)o1")
"13.2 µM"
>>> result("N#Cc1csc(NC(=O)c2ccc(COc3ccccc3)o2)n1")
"18.1 µM"
>>> result("CC(C)Cc1ccc(/C=C/C(=O)NC2=NCCS2)cc1")
"0.57 µM"
>>> result("CC(C)c1ccc(/C=C/C(=O)Nc2cncs2)cc1")
"11.4 µM"
>>> result("Cc1csc(NC(=O)c2ccc(COCc3ccccc3)o2)n1")
"6.04 µM"
>>> result("Cc1csc(NC(=O)c2ccc(CCc3ccccc3)o2)n1")
"0.895 µM"

Entry `N#Cc1ccc(/C=C/C(=O)NC2=NCCS2)cc1` has what AC50?
29.2 µM

Entry `O=C(COc1c(Cl)cc(Cl)cc1Cl)N/N=C/c1ccc[nH]1` has what AC50?
1.44 µM

Entry `CCc1ccc(/C=C/C(=O)NC2=NCCS2)cc1` has what AC50?
1.67 µM

Entry `CC(C)c1ccc(/C=C/C(=O)N(C)C2=NCCS2)cc1` has what AC50?
21.2 µM

###

tested on: HMLE_shECad viability, CellTiter-Glo luminescence, 72 h; test: killing of E-cadherin-knockdown HMLE cells – cell-based, CellTiter-Glo luminescence, primary HTS retest, dry powder, set 5, dose response (AID 504535)
Records with an inconclusive call do not appear.
readout: AC50

Here are 2 compounds together with their reported answers.
>>> result("Cc1cc(Br)ccc1OCC(=O)N/N=C/c1ccc[nH]1")
"3.76 µM"
>>> result("Cc1csc(NC(=O)c2ccc(COC3CCCCC3)o2)n1")
"17 µM"

API: value(readout=AC50, system=HMLE_shECad viability, CellTiter-Glo luminescence, 72 h) for record `CC(C)c1ccc(/C=C/C(=O)NC2=NCCS2)cc1`
2.97 µM

API: value(readout=AC50, system=HMLE_shECad viability, CellTiter-Glo luminescence, 72 h) for record `Cc1ccc(OCc2ccc(C(=O)Nc3nc(C)cs3)o2)cc1`
2.51 µM

API: value(readout=AC50, system=HMLE_shECad viability, CellTiter-Glo luminescence, 72 h) for record `Cc1csc(NC(=O)c2ccc(CNc3ccccc3)o2)n1`
0.676 µM

API: value(readout=AC50, system=HMLE_shECad viability, CellTiter-Glo luminescence, 72 h) for record `Cc1csc(NC(=O)c2ccc(COc3ccccn3)o2)n1`
17.8 µM
